molecular target: T1, CD47 protein (Acrobiosystems, cat #CD7-HA2E9) (UniProt Q08722 19-139); test: ELISA, CD47 protein coated 100 ng/well, 0.8 µg antibody per well
T1 construct: Bought recombinant protein coated on the ELISA plate at 100 ng/well; also called CD47 antigen; CD47 peptide
T1 sequence (Q08722 19-139 limits assumed): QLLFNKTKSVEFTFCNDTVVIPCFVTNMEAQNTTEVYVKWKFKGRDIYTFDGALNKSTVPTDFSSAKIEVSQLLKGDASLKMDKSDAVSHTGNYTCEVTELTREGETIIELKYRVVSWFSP
Let's look at some binders and their measured OD450 measurements.
A number alone suffices; assume OD450.

Ask: For Hu3A5 (V9) antibody (antibody, V domains shown) VH: EVQLVQSGSELKKPGASVKVSCKASGYTFTSYWMHWMRQAPGQGLEWIGVIDPSDSYTSYNQGFTGRFVLSVDTSVSTAYLQISSLKAEDTAVYYCARGGKRAMDYWGQGTTVTVSS VL: DVVMTQSPLSLPVTLGQPASISCRSSQSLVHSNGNTYLHWFQQRPGQSPRLLIYKVSNRFSGVPDRFSGSGSGTDFTLKISRVEAEDVGVYFCSQSTHVPFTFGGGTKLEIK , what is its reported OD450 measurements?
Reply: 2.65

Ask: For Hu3A5 (V8) antibody (antibody, V domains shown) VH: QVQLVQSGAEVKKPGASVKVSCKASGYTFTSYWMHWVRQAPGQGLEWMGVIDPSDSYTSYNQKFQGRVTMTVDTSTSTAYMELSSLRSEDTAVYYCARGGKRAMDYWGQGTTVTVSS VL: DVVMTQSPDSLAVSLGERATINCKSSQSLVHSNGNTYLHWYQQKPGQPPKLLIYKVSNRFSGVPDRFSGSGSGTDFTLTISSLQAEDVAVYYCSQSTHVPFTFGGGTKLEIK , what is its reported OD450 measurements?
Reply: 2.45

Ask: For Hu3A5 (V6) antibody (antibody, V domains shown) VH: QVQLVQSGAEVKKPGASVKVSCKASGYTFTSYWMHWVRQAPGQGLEWMGVIDPSDSYTSYNQKFQGRVTMTVDTSTSTAYMELSSLRSEDTAVYYCARGGKRAMDYWGQGTTVTVSS VL: DVVMTQSPLSLPVTLGQPASISCRSSQSLVHSNGNTYLHWFQQRPGQSPRLLIYKVSNRFSGVPDRFSGSGSGTDFTLKISRVEAEDVGVYYCSQSTHVPFTFGGGTKLEIK , what is its reported OD450 measurements?
Reply: 2.62
